# method_notes: cytotoxicity toward NIH3T3 fibroblasts, dose response, counter-screen, cell-based, ATP luminescence, mouse fibroblasts (AID 2010);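 further: cells exposed to compound for about 90 hours before reading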
# Type: functional
Calls of active or inactive are those of the source.
Measured EC50 by item

compound: Nc1n[nH]c(N)c1N=Nc1ccc2c(c1)OCO2
measured_attribute: EC50
endpoint_result: > 60 µM (not active)

[ask] Please indicate EC50 recorded for CC(NC(=O)CN1C(=O)NC(Cc2ccccc2)(Cc2ccccc2)C1=O)C12CC3CC(CC(C3)C1)C2 (stereo unspecified)
[reply] > 30 µM (not active)

[ask] Return EC50 for the following compound: "CN(C)CCCN(C(=O)c1ccc(S(=O)(=O)N2CCc3ccccc32)cc1)c1nc2c(Cl)cccc2s1"
[reply] 20.2 µM (active)

[ask] Output EC50 of "NS(=O)(=O)c1ccc(Nc2nc(-c3cccc([N+](=O)[O-])c3)cs2)cc1"
[reply] > 60 µM (not active)

[ask] Given the compound "Cc1cc(N2CCN(C)CC2)nc2ccc(NC(S)=NCCC(C)C)cc12" , write its reported EC50.
[reply] 8.05 µM (active)

[ask] Please report the measured EC50 for "CC#CC[N+](C)(C)CCCCCCCCCCCC"
[reply] > 30 µM (not active)

[ask] Indicate the recorded EC50 value for this compound: "Cc1ccc2oc(=O)c3cnn(CC(=O)NC4CCN(Cc5ccccc5)CC4)c3c2c1"
[reply] > 60 µM (not active)

[ask] Query EC50 for "C/C=C(\C)CN1CCC(n2nccc2NC(=O)c2ccc(OC)cc2)CC1"
[reply] > 60 µM (not active)

[ask] Please report the measured EC50 for "O=C(NCc1ccccc1)c1onc(CSc2ccccc2)c1C(=O)NCC1CC1"
[reply] > 60 µM (not active)

[ask] Look up EC50 of Cc1nn(-c2ccc([N+](=O)[O-])cc2)c2c1C(c1ccc(OC(F)F)cc1)N1C(=N2)C(=O)Nc2ccccc21 (stereo unspecified) and report it.
[reply] > 60 µM (not active)

[ask] Please supply the value of reported EC50 for the item "CCCCc1ccc(/C(C)=N/Nc2cc(N3CCOCC3)nc(C)n2)cc1"
[reply] > 60 µM (not active)

* * *

# System: P388/ADR
# method_notes: cells
# Assay type: functional
# assay_conditions: Mus musculus
The source made the active and inactive calls.
Measured GI50 accompanies every entry in the list below.

[ask] Output GI50 of "COc1cc(-c2ccc(/N=N/c3ccc4c(S(=O)(=O)O)cc(S(=O)(=O)O)c(N)c4c3O)c(OC)c2)ccc1/N=N/c1ccc2c(S(=O)(=O)O)cc(S(=O)(=O)O)c(N)c2c1O"
[reply] > 100 µM (inactive)

[ask] Provide only the value of recorded GI50 for "C=CCn1c2ccccc2c2c(C)c3cnccc3c(C)c21"
[reply] 11.2 µM (inactive)

[ask] Identify GI50 associated with the compound "N/C(=N\O)N/N=C\c1c(O)cc(O)cc1O"
[reply] 17.5 µM (inactive)

[ask] Retrieve GI50 measured for "COc1cc(/C=C(/C#N)C(N)=O)ccc1O" and print it.
[reply] > 100 µM (inactive)

[ask] Hello, please tell me recorded GI50 for this one: Cc1[nH]c(=O)[nH]c(=O)c1/C=C/C(=O)NC(CO)C[S+]([O-])Cc1ccccc1 (stereo not given)
[reply] > 300 µM (inactive)

* * *

# assay_target: UniProtKB Q9Y463
# Sequence (Q9Y463 whole entry): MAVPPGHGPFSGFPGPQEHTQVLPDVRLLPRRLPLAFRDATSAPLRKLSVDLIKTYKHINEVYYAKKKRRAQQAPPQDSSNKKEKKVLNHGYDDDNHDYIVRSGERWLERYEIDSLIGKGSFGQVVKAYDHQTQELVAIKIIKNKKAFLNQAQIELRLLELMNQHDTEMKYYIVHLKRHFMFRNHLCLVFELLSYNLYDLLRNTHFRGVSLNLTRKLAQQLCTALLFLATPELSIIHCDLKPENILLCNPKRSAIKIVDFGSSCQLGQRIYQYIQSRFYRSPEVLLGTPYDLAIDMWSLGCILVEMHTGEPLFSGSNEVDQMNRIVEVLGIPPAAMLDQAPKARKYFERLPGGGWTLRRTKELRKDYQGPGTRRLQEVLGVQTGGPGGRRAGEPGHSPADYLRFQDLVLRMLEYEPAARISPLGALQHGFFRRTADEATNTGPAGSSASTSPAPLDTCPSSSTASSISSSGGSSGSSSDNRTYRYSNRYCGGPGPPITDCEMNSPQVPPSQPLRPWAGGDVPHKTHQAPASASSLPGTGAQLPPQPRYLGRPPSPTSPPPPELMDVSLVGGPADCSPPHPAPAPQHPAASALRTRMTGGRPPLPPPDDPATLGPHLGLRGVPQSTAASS
# method_notes: Navigating the Kinome. Panel member name: DYRK1B
# Format: functional
The source made the active and inactive calls.
Bench note: report the call from yes (active), no (inactive)

smiles_representation: Cc1nn(C)c2sc3c(=O)[nH]cnc3c12
assigned_class: yes
//
smiles_representation: COc1cc2c(cc1F)C(c1ccccc1Cl)=Nc1c(n[nH]c1C)N2
assigned_class: yes

[ask] Outcome? "Nc1nnc2cccc(Cl)n12"
[reply] yes

[ask] How did this test come out for "Cc1ccc2nccc(NC(=O)Nc3cccc(C(F)(F)F)n3)c2c1" ?
[reply] no

[ask] Name the outcome recorded for "O=c1[nH]c2cnc(Cl)nc2[nH]1" in the assay.
[reply] yes

* * *

# assay_target: Mannose-6-phosphate isomerase (Homo sapiens, UniProt P34949)
# Sequence (P34949 whole entry): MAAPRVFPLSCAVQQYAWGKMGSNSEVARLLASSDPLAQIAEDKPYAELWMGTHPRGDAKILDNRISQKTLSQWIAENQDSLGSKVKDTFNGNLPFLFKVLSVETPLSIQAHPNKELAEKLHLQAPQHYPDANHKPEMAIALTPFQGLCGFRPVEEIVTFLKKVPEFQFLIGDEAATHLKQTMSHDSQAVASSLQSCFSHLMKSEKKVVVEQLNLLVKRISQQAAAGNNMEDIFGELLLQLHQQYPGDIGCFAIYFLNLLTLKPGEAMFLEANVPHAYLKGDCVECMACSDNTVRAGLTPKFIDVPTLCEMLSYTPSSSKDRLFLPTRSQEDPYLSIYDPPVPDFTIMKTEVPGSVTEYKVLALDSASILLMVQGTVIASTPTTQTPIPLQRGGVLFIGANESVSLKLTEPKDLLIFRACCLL
# method_notes: human PMI inhibitors, high substrate, primary screen, biochemical, fluorescence intensity, high mannose 6-phosphate (AID 1220)
Active and inactive are the calls of the source.
In this section we review reported IC50 values for a set of compounds.

Worked cases, answers included:
smiles_representation: Oc1cccc(/C=N/NC(=S)Nc2cccnc2)c1O
assay_target: Mannose-6-phosphate isomerase (Homo sapiens, UniProt P34949)
measured_attribute: IC50
endpoint_result: 16.1 µM (active)
--
smiles_representation: Cc1sc2nc3ccc(N4CCCC4)nn3c(=O)c2c1C
assay_target: Mannose-6-phosphate isomerase (Homo sapiens, UniProt P34949)
measured_attribute: IC50
endpoint_result: > 50 µM (not active)

[ask] Using the record for "Cc1c(/N=C2\C=CC(=O)c3ccccc32)c(=O)n(-c2ccccc2)n1C" , state its measured IC50.
[reply] 46.4 µM (active)

[ask] Report IC50 for "Cc1cc(SCC(=O)N/N=C/c2ccc(O)c(O)c2O)c(C)cc1Br"
[reply] > 50 µM (not active)

* * *

Each entry below carries its reported IC50.
# assay_target: UniProtKB P03070
# Sequence (P03070 whole entry): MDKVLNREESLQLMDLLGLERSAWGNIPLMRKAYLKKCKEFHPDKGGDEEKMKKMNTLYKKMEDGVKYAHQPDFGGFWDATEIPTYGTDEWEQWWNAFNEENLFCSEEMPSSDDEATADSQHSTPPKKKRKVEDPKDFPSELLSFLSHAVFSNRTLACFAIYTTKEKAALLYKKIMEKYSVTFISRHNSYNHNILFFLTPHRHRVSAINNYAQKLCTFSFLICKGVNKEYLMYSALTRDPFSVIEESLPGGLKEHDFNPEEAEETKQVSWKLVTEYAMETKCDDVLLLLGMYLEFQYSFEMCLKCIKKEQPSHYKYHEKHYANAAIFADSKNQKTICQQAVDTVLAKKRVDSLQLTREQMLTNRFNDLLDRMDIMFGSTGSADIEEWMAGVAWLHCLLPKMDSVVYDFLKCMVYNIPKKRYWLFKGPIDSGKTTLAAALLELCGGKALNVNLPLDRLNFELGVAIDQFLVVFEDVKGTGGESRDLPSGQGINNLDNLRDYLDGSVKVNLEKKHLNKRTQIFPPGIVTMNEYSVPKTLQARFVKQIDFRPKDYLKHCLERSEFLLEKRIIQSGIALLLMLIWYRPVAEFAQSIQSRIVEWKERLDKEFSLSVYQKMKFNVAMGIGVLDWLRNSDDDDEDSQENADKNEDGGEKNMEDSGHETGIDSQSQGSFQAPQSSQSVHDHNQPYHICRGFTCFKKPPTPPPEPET
# Type: functional, Betapolyomavirus macacae
Active and inactive are the calls of the source.

compound: O=C1NC(=S)NC(=O)C1=Cc1ccc(Br)s1
assay_target: UniProtKB P03070
endpoint_result: 64.5 µM (active)

[ask] Read the entry "Cc1ccsc1/C=C1/C(=O)NN(c2ccccc2)C1=O" and write its reported IC50.
[reply] 28.1 µM (active)

[ask] Quickly give me recorded IC50 for O=C(O)C(S)C(S)C(=O)O (stereo not drawn)
[reply] 75.9 µM (active)

* * *

# assay_target: Genome polyprotein (dengue virus type 2)
# method_notes: Dengue-2 NS5 methyltransferase inhibitors, primary screen, biochemical, confirmation dose response (AID 588689)
# Type: functional
The source made the active and inactive calls.
Each entry below carries its recorded IC50.

Please review the following examples before continuing.
molecule: O=C(O)CCN1C(=O)/C(=C/c2ccc(-c3nc4ccccc4s3)o2)SC1=S
endpoint_result: > 100 µM (active)

molecule: COC(=O)C1=C(C(=O)OC)C(c2cc(Cl)ccc2O)c2sc(O)nc2S1 (stereo not given)
endpoint_result: > 100 µM (active)

molecule: Cc1c(/N=C2\C=CC(=O)c3ccccc32)c(=O)n(-c2ccccc2)n1C
endpoint_result: 88.6 µM (active)

# next molecule below
[ask] Report IC50, nothing else, for this molecule: "Cc1cc([N+](=O)[O-])ccc1N1C(=O)c2ccc(C(=O)Nc3ccccc3C(=O)O)cc2C1=O"
[reply] 67.9 µM (active)

* * *

# assay_target: Ubiquitin-conjugating enzyme E2 N (Homo sapiens, UniProt P61088)
# Sequence (P61088 whole entry): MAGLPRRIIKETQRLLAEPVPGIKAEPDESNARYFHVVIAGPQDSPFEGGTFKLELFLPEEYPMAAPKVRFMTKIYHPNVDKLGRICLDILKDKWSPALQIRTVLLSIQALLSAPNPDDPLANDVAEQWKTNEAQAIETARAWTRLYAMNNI
# Format: functional
The source made the active and inactive calls.
Your response should consist of one outcome taken from y for active, n for inactive

Example results:
compound: Oc1cc(Nc2ccncc2)cc2cccnc12
assay_target: Ubiquitin-conjugating enzyme E2 N (Homo sapiens, UniProt P61088)
assigned_class: y
--
compound: NC1=NC[C@H](Cc2ccccc2)N1CCCCC1CCCCC1
assay_target: Ubiquitin-conjugating enzyme E2 N (Homo sapiens, UniProt P61088)
assigned_class: n
--
compound: O=C1c2cccc3cccc(c23)N1Cc1ccc(F)cc1
assay_target: Ubiquitin-conjugating enzyme E2 N (Homo sapiens, UniProt P61088);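 further: Dose-response confirmation in a TR-FRET assay detecting UBC13-driven polyubiquitin chain formation, inhibition measured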
assigned_class: y

[ask] Write down the call the test reported for this compound. Item: "CC1CCN(CCNC(=O)c2ccc3c(=O)n(Cc4ccc(Cl)cc4)c(=S)[nH]c3c2)CC1"
[reply] n

[ask] Dear colleague, could you share the recorded outcome for "COc1ccc2sc(-c3ccccc3OC)c(C#Cc3cncn3C)c2c1" when you have a moment?
[reply] n

[ask] Would you mind telling me which call this test gave CCOC(=O)C1=C(COC(=O)c2cc(OC)c(OC)c(OC)c2)NC(=O)NC1C (stereo not drawn) ?
[reply] y

[ask] Lab log entry: "CN(Cc1ccccc1)C(=O)COC(=O)c1cc(-c2ccc(Cl)s2)nc2ccccc12" — outcome as called in the assay?
[reply] y

[ask] In this assay, the call recorded for CCC(C)(C)NC(=O)C(c1ccc(C)o1)N(Cc1ccc2c(c1)OCO2)C(=O)c1snc(C(N)=O)c1N (stereo not drawn) was what?
[reply] n
